assay: Plasma pharmacokinetics (LC–MS/MS, non-compartmental analysis); format: in vivo, Japanese patients; conditions: human, plasma, oral, 1400 mg, Cycle 1 Day 1; 1400 mg qd; n = 5; read-out: AUClast, Median

SMILES DATA	AUC(0-t) / ng·h/mL
Cn1c(=O)n(-c2ccc(C(C)(C)C#N)cc2)c2c3cc(-c4cnc5ccccc5c4)ccc3ncc21	10200

###

assay: Plasma pharmacokinetics (LC–MS/MS, non-compartmental analysis); format: in vivo, Japanese patients; conditions: human, plasma, oral, 1000 mg, Cycle 1 Day 8; 1000 mg qd; n = 7; read-out: Cmax, Median
TEST READOUT: Cmax

COMPOUND	TEST READOUT	OBSERVED
Cn1c(=O)n(-c2ccc(C(C)(C)C#N)cc2)c2c3cc(-c4cnc5ccccc5c4)ccc3ncc21 [BEZ235]	Cmax	912 ng/mL

###

assay: Plasma pharmacokinetics (LC–MS/MS, non-compartmental analysis); format: in vivo, Japanese patients; conditions: human, plasma, oral, 400 mg, Cycle 1 Day 8; 400 mg bid; n = 5; read-out: AUC0 − 24, Median

COMPOUND	AUC(0-t) [ng·h/mL]
Cn1c(=O)n(-c2ccc(C(C)(C)C#N)cc2)c2c3cc(-c4cnc5ccccc5c4)ccc3ncc21 [BEZ235]	10700

###

experiment: Plasma pharmacokinetics (LC–MS/MS, non-compartmental analysis); format: in vivo, Japanese patients; details: human, plasma, oral, 1200 mg, Cycle 1 Day 1; 1200 mg qd; n = 5; read-out: Tmax, Median
TEST READOUT: Tmax (h)

MOLECULE	OBSERVED
Cn1c(=O)n(-c2ccc(C(C)(C)C#N)cc2)c2c3cc(-c4cnc5ccccc5c4)ccc3ncc21 [BEZ235]	6

###

test: Plasma pharmacokinetics (LC–MS/MS, non-compartmental analysis); assay type: in vivo, Japanese patients; conditions: human, plasma, oral, 1200 mg, Cycle 1 Day 28; 1200 mg qd; n = 2; read-out: AUClast, Median
TEST READOUT: AUC(0-t) (ng·h/mL)

SMILES DATA	TEST READOUT	UNIT ANNOTATION	OBSERVED
Cn1c(=O)n(-c2ccc(C(C)(C)C#N)cc2)c2c3cc(-c4cnc5ccccc5c4)ccc3ncc21	AUC(0-t)	ng·h/mL	37100

###

experiment: Plasma pharmacokinetics (LC–MS/MS, non-compartmental analysis); format: in vivo, Japanese patients; conditions: human, plasma, oral, 1000 mg, Cycle 1 Day 8; 1000 mg qd; n = 7; read-out: Tmax, Median

COMPOUND	Tmax (h)
Cn1c(=O)n(-c2ccc(C(C)(C)C#N)cc2)c2c3cc(-c4cnc5ccccc5c4)ccc3ncc21 [BEZ235]	6

###

test: Plasma pharmacokinetics (LC–MS/MS, non-compartmental analysis); type: in vivo, Japanese patients; conditions: human, plasma, oral, 800 mg, Cycle 1 Day 1; 800 mg qd; n = 3; read-out: Tmax, Median
TEST READOUT: Tmax (h)

MOLECULE	TEST READOUT	UNIT ANNOTATION	OBSERVED
Cn1c(=O)n(-c2ccc(C(C)(C)C#N)cc2)c2c3cc(-c4cnc5ccccc5c4)ccc3ncc21 [BEZ235]	Tmax	h	8

###

test: Plasma pharmacokinetics (LC–MS/MS, non-compartmental analysis); type: in vivo, Japanese patients; details: human, plasma, oral, 1000 mg, Cycle 1 Day 8; 1000 mg qd; n = 3; read-out: AUCinf, Median

SMILES DATA	AUC(0-inf) [ng·h/mL]
Cn1c(=O)n(-c2ccc(C(C)(C)C#N)cc2)c2c3cc(-c4cnc5ccccc5c4)ccc3ncc21	8300
